B1: glmS ribozyme (parent)
chain: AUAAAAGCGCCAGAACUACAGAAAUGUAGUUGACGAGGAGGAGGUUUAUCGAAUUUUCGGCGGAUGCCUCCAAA

variants of: B1; test: self-cleavage kobs at 2500 uM GlcN6P; higher = faster cleavage; RNA array; conditions: with glucosamine-6-phosphate
This sample holds only a part of the variants without activity.
quantity kind: self-cleavage kobs at 2500 uM GlcN6P (s⁻¹)
Only the number, expressed in s⁻¹, is required.

Record excerpt, results attached:
| mutation descriptor | measurement units | self-cleavage kobs at 2500 uM GlcN6P |
| --- | --- | --- |
| C61G G62A C67U C68A | s⁻¹ | 0.000107 |
| U30G U54G U56G | s⁻¹ | 0.00255 |
| C11A U54G | s⁻¹ | 7.77e-05 |
| A12G G13C G29A C50G | s⁻¹ | 4.52e-05 |

Task: Quote self-cleavage kobs at 2500 uM GlcN6P reported for C58U C67U please.
Output: 2.92e-05

Task: Give self-cleavage kobs at 2500 uM GlcN6P for the following variant: A39U C58A
Output: 8.13e-05

Task: # return recorded self-cleavage kobs at 2500 uM GlcN6P for input U31G A53U
Output: 0.00587
